Tested on: HCC-2998 colon
Test: NCI-60 one-dose screen, 48 h
Details: 10 µM unless noted
This is part of a sample that, as a whole, favours compounds with a hit. Of some 83,000 tested, about 20% had one in any assay. Activity calls are given as the source filed them. Rule for the calls: active = growth percent below 10; inactive = the rest.
Choose one outcome from this list and give only that: active, inactive

Can you look up the reported call for Oc1ccc2c(c1)CCc1ccccc1-2 for me?
inactive

Can you look up the reported call for O=C(c1ccccc1)c1ccc(O)c2ncccc12 for me?
inactive

Can you look up the reported call for OC(c1cc(C23CC4CC(CC(C4)C2)C3)nc2c(Cl)cc(Cl)cc12)C1CCCCN1 (centres undefined) for me?
active

Can you look up the reported call for CC(/C=N/NC(N)=S)Cc1ccc(C(C)C)cc1 (centres undefined) for me?
inactive

Can you look up the reported call for CN(C)CC(C)(CN(C)C)C(=O)/C=C/c1c(Cl)cccc1Cl for me?
inactive

Can you look up the reported call for CCOC(=O)NC(/C=C/c1ccccc1)NC(=O)OCC for me?
inactive

Can you look up the reported call for CCOC(=O)c1cc(CC)sc1NC(=O)CC(C)=O for me?
inactive

Can you look up the reported call for CN(C)CCSC1=Nc2ccc(Cl)cc2C(c2ccccc2Cl)N(C)C1 (centres undefined) for me?
inactive

Can you look up the reported call for Cc1cc(N/N=C/c2ccccn2)nc2ccccc12 for me?
inactive
